B1: H2-Kb / F4 (parent complex)
chain 1: QQQVRQSPQSLTVWEGETAILNCSYEDSTFNYFPWYQQFPGEGPALLISIRSVSDKKEDGRFTIFFNKREKKLSLHITDSQPGDSATYFCAAMSNYNVLYFGSGTKLTVEP
chain 2: ETAVFQTPNYHVTQVGNEVSFNCKQTLGHDTMYWYKQDSKKLLKIMFSYNNKQLIVNETVPRRFSPQSSDKAHLNLRIKSVEPEDSAVYLCASSARQNSPLYFAAGTRLTVT
chain 3: not shown
chain 4: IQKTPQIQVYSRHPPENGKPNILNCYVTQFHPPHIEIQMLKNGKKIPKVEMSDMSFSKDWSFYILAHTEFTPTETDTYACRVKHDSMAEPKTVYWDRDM
chain 5: SIINFEKL

- Variants of: B1
- test_details: % of reporter cells activated (NFAT-GFP), raw; also: test concentration or dose not given here
quantity_measured: ratio to parent

Some solved entries appear below for comparison.
chain 5 N4W; 0.0415
chain 5 N4G; 0.225
chain 5 S1R; 0.0259

a. chain 5 F5T
b. chain 5 L8S
Query: # compare ratio to parent for a vs b ; return the one with the smaller value // caller expects the label of the chosen entry
Response: b

I. chain 5 N4S
II. chain 5 I3R
Query: # argmax over ratio to parent for candidates I and II State the label of the item chosen.
Response: II
